The reported numbers originate from paper PMC5193077.

- TARGET_ENTITY: mouse D1 receptor (Mus musculus)
- Sequence (Q61616 whole entry): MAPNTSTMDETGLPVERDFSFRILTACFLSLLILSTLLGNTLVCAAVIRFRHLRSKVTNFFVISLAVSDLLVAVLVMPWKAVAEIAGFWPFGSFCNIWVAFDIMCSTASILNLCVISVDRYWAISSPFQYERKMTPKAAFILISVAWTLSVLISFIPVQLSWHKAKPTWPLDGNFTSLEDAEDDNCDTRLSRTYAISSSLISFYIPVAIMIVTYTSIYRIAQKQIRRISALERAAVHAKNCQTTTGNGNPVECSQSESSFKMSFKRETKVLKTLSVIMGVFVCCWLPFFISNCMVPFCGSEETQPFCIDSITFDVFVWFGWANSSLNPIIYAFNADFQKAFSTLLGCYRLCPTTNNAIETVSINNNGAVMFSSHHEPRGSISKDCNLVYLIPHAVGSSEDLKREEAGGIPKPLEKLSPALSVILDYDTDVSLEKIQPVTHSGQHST
- ASSAY: cAMP potentiation, transiently expressed mouse D1 receptor in HEK293 cells
- CONDITIONS: Mouse D1, transient; 0.7 nM dopamine
MEASURED_ATTRIBUTE: pEC50
// pEC50 here means minus log10 of the molar concentration (mol/L)

For record C[C@H]1c2cccc(C(C)(C)O)c2C[C@H](CO)N1C(=O)Cc1c(Cl)cccc1Cl the listed pEC50 is 6.51
